Measured on: Broad substrate specificity ATP-binding cassette transporter ABCG2 (Homo sapiens, UniProt Q9UNQ0)
Sequence (Q9UNQ0 whole entry): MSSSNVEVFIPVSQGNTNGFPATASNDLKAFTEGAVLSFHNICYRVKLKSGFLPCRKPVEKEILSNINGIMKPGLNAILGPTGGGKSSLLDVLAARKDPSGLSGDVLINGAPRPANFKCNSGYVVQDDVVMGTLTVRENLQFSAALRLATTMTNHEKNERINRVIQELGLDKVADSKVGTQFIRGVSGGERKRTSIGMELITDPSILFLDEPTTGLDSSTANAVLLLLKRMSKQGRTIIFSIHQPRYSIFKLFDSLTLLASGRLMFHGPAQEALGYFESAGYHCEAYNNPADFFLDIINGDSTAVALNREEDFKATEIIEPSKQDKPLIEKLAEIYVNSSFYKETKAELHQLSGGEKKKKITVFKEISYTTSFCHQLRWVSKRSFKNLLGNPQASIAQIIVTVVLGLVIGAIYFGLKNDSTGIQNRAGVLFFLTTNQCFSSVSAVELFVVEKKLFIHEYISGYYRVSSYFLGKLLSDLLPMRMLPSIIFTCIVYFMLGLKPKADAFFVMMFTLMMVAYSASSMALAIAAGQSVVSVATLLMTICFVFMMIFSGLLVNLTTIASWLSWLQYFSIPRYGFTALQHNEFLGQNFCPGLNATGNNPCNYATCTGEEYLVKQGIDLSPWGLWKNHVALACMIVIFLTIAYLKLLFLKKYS
Test summary: Inhibition of ABCG2 (unknown origin) expressed in dog MDCK-II-BCRP cells assessed as increase in pheophorbide A fluorescence intensity using pheophorbide as tracer preincubated for 30 mins followed by pheophorbide addition and measured for 180 mins by flow cytometry
Format: cell-based
I'd appreciate it if you could supply IC50 values for the items below.
Number in nM, nothing else.

Query: Return reported IC50; argument: `O=C(Cn1nc(C(=O)Nc2cccnc2)c2ccccc21)Nc1ccc(Cl)cc1`
Result: 14200

Query: And what about the compound `COc1cccc(NC(=O)Cn2nc(C(=O)Nc3cccc(OC)c3)c3ccccc32)c1` ?
Result: 1330

Query: And what about the compound `O=C(Cn1nc(C(=O)Nc2ccccn2)c2ccccc21)Nc1cc(Cl)ccc1Cl` ?
Result: 1170

Query: And what about the compound `COc1cccc(NC(=O)c2nn(CC(=O)Nc3ccccc3OC)c3ccccc23)c1` ?
Result: 1660
